Target: Renin (Homo sapiens, UniProt P00797)
Sequence (P00797 whole entry): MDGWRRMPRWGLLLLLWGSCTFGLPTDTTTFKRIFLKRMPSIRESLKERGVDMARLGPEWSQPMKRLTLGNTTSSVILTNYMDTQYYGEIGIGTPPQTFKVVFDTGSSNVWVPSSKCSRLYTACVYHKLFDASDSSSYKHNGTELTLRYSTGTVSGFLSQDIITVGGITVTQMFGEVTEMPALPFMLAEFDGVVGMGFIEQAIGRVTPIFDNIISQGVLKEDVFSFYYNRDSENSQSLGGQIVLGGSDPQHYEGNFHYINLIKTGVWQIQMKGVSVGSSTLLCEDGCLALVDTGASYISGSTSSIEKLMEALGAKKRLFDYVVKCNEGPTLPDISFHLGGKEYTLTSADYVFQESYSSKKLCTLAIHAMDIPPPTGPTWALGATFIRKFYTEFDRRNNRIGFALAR
Assay: Dissociation constant (Kd) of renin inhibitor was determined over a temperature range of 8-37 degree by the fluorescence displacement assay
pKd: −log10 of the molar value. Where a SMILES comes first, the peptide text is derived from it. [ ]: non-standard residue; d: D form. Sta = CC(C)C[C@H](N)[C@@H](O)CC(=O)O
Experimental endpoint: pKd

Past entries and their recorded results:
Compound	pKd
CC[C@H](C)[C@H](NC(=O)C[C@H](O)[C@H](CC(C)C)NC(=O)[C@H](Cc1cnc[nH]1)NC(=O)[C@H](Cc1ccccc1)NC(C)=O)C(N)=O (Ac-FH[Sta]I-NH2)	6.69
CC(=O)N1CCC[C@H]1C(=O)N[C@@H](Cc1ccccc1)C(=O)N[C@@H](Cc1c[nH]cn1)C(=O)N[C@H](CN[C@@H](Cc1ccccc1)C(N)=O)Cc1ccccc1	7.54
CC[C@H](C)[C@H](NC(=O)[C@@H](NC[C@H](CC(C)C)NC(=O)[C@H](Cc1c[nH]cn1)NC(=O)[C@H](Cc1ccccc1)NC(=O)[C@@H]1CCCN1C(=O)[C@H](Cc1c[nH]cn1)NC(=O)[C@@H]1CCCN1)C(C)C)C(=O)N[C@@H](Cc1c[nH]cn1)C(=O)N[C@@H](CCCCN)C(=O)O	8.10

(a) CC[C@H](C)[C@H](NC(=O)C[C@H](O)[C@H](CC(C)C)NC(=O)[C@H](Cc1c[nH]cn1)NC(=O)[C@H](Cc1ccccc1)NC(=O)[C@@H]1CCCN1C(=O)[C@H](Cc1c[nH]cn1)NC(C)=O)C(N)=O (Ac-HPFH[Sta]I-NH2)
(b) CC[C@H](C)[C@H](NC(=O)C[C@H](O)[C@H](CC(C)C)NC(=O)[C@H](Cc1c[nH]cn1)NC(=O)[C@H](Cc1ccccc1)NC(=O)[C@@H]1CCCN1C(C)=O)C(N)=O (Ac-PFH[Sta]I-NH2)
(c) CC[C@H](C)[C@H](NC(=O)[C@@H](C[C@H](O)[C@H](CC(C)C)NC(=O)[C@H](Cc1c[nH]cn1)NC(=O)[C@H](Cc1ccccc1)NC(=O)[C@H]1CCCN1C(C)=O)C(C)C)C(N)=O
(d) CC[C@H](C)[C@H](NC(=O)[C@@H](C[C@H](O)[C@H](CC(C)C)NC(=O)[C@H](Cc1cnc[nH]1)NC(=O)[C@H](Cc1ccccc1)NC(C)=O)C(C)C)C(N)=O
(e) CC(=O)N[C@@H](Cc1ccccc1)C(=O)N[C@@H](Cc1c[nH]cn1)C(=O)N[C@H](CN[C@@H](Cc1ccccc1)C(N)=O)Cc1ccccc1
Hello, I need these entries ordered by pKd, highest reading first. Thanks! Show the ranking through the labels, in the order asked for.
c, a, b, e, d
